Data provenance is BindingDB's records for doi:10.1016/j.bmcl.2009.09.017.

- assayInfo: Antagonist activity at P2Y12 receptor in human platelet rich plasma assessed as inhibition of ADP-induced platelet aggregation by light transmission aggregometry
Field: pIC50. Provide a value for each of the molecules that follow.
Give bare numbers, as −log10 of the molar value.

Consider the reported pIC50 for these molecules:
State the recorded pIC50 for this entry: `CCCCCOC(=O)N1CCN(C(=O)[C@H](CCC(=O)O)NC(=O)c2nc(OCCCN3CCOCC3)cc(-c3ccccc3)n2)CC1`
5.15

Now consider `CCCCCOC(=O)N1CCN(C(=O)[C@H](CCC(=O)O)NC(=O)c2cc(N3CCC(CC(=O)N4CCCC4)CC3)nc(-c3ccccc3)n2)CC1` and answer again.
5.82

Kindly consider the entry below.
State the recorded pIC50 for this entry: `CCCCCOC(=O)N1CCN(C(=O)[C@H](CCC(=O)O)NC(=O)c2cc(N3CCC(C(=O)NCC)CC3)nc(-c3ccccc3)n2)CC1`
6.03

====

- assayInfo: Antagonist activity at P2Y12 receptor in human platelet rich plasma assessed as inhibition of ADP-induced platelet aggregation by light transmission aggregometry
measuredAttribute: IC50

State the recorded IC50 for this entry: `CCCCCOC(=O)N1CCN(C(=O)[C@H](CCC(=O)O)NC(=O)c2cc(N3CCC(CN)CC3)nc(-c3ccccc3)n2)CC1`
490 nM

Please state IC50 for every molecule in the list that follows.
1. CCCCCOC(=O)N1CCN(C(=O)[C@H](CCC(=O)O)NC(=O)c2nc(-c3ccccc3)cc(N3CCC(CCN4CCCC4)CC3)n2)CC1
2. CCCCCOC(=O)N1CCN(C(=O)[C@H](CCC(=O)O)NC(=O)c2cc(N3CCC(C(=O)N(C)C)CC3)nc(-c3ccccc3)n2)CC1
3. CCCCCOC(=O)N1CCN(C(=O)[C@H](CCC(=O)O)NC(=O)c2cc(N3CCC(C(=O)N(CC)CC)CC3)nc(-c3ccccc3)n2)CC1
4. CCCCCOC(=O)N1CCN(C(=O)[C@H](CCC(=O)O)NC(=O)c2nc(-c3ccccc3)cc(N3CCC(N4CCCC4)CC3)n2)CC1
5. CCCCCOC(=O)N1CCN(C(=O)[C@H](CCC(=O)O)NC(=O)c2cc(N3CCC(CCN)CC3)nc(-c3ccccc3)n2)CC1
6. CCCCCOC(=O)N1CCN(C(=O)[C@H](CCC(=O)O)NC(=O)c2cc(N3CCC(OC)CC3)nc(-c3ccccc3)n2)CC1

1700 nM
370 nM
400 nM
2100 nM
620 nM
2700 nM

====

- assayInfo: Antagonist activity at P2Y12 receptor in human platelet rich plasma assessed as inhibition of ADP-induced platelet aggregation by light transmission aggregometry
measuredAttribute: IC50 (µM)
Numbers only, in µM.

Consider the reported IC50 for these compounds:
State the recorded IC50 for this entry: CCCCOC(=O)N1CCN(C(=O)[C@H](CCC(=O)O)NC(=O)c2cc(OC(CC)C(=O)N(CC)CC)nc(-c3ccccc3)n2)CC1 (stereo not given in full)
49

Now consider `CCCCCOC(=O)N1CCN(C(=O)[C@H](CCC(=O)O)NC(=O)c2nc(-c3ccccc3)cc(N3CCC(CNCC)CC3)n2)CC1` and answer again.
1.2

Now consider `CCCCCOC(=O)N1CCN(C(=O)[C@H](CCC(=O)O)NC(=O)c2cc(N3CCC(CC(=O)N(CC)CC)CC3)nc(-c3ccccc3)n2)CC1` and answer again.
2.6

Now consider `CCCCCOC(=O)N1CCN(C(=O)[C@H](CCC(=O)O)NC(=O)c2cc(N3CCC(CN4CCCC4=O)CC3)nc(-c3ccccc3)n2)CC1` and answer again.
1.6

Now consider `CCCCCOC(=O)N1CCN(C(=O)[C@H](CCC(=O)O)NC(=O)c2nc(-c3ccccc3)cc(N3CCC(N4CCOCC4)CC3)n2)CC1` and answer again.
3

Please state IC50 for every compound in the list that follows.
1. CCCCCOC(=O)N1CCN(C(=O)[C@H](CCC(=O)O)NC(=O)c2nc(-c3ccccc3)cc(N3CCC(COC)CC3)n2)CC1
2. CCCCCOC(=O)N1CCN(C(=O)[C@H](CCC(=O)O)NC(=O)c2cc(N3CCC(N4CCOCC4)CC3)nc(-c3ccccc3)n2)CC1
3. CCCCCOC(=O)N1CCN(C(=O)[C@H](CCC(=O)O)NC(=O)c2cc(OCCN(CC)CC)nc(-c3ccccc3)n2)CC1
4. CCCCCOC(=O)N1CCN(C(=O)[C@H](CCC(=O)O)NC(=O)c2cc(N3CCC(C(N)=O)CC3)nc(-c3ccccc3)n2)CC1
5. CCCCCOC(=O)N1CCN(C(=O)[C@H](CCC(=O)O)NC(=O)c2cc(NCCOC)nc(-c3ccccc3)n2)CC1

1: 6.8; 2: 0.78; 3: 15; 4: 0.69; 5: 2.6

====

- assayInfo: Antagonist activity at P2Y12 receptor in human platelet rich plasma assessed as inhibition of ADP-induced platelet aggregation by light transmission aggregometry
Field: pIC50. Provide a value for each of the compounds that follow.
Answers are plain numbers, as −log10 of the molar value.

Consider the reported pIC50 for these compounds:
State the recorded pIC50 for this entry: `CCCCCOC(=O)N1CCN(C(=O)[C@H](CCC(=O)O)NC(=O)c2nc(OCC3CCN(C)CC3)cc(-c3ccccc3)n2)CC1`
5.42

Now consider `CCCCCOC(=O)N1CCN(C(=O)[C@H](CCC(=O)O)NC(=O)c2nc(-c3ccccc3)cc(N3CCC(CN)CC3)n2)CC1` and answer again.
6.11

Please state pIC50 for every compound in the list that follows.
1. CCCCCOC(=O)N1CCN(C(=O)[C@H](CCC(=O)O)NC(=O)c2nc(-c3ccccc3)cc(N3CCC(CNC)CC3)n2)CC1
2. CCCCCOC(=O)N1CCN(C(=O)[C@H](CCC(=O)O)NC(=O)c2cc(N3CCC(COCCOC)CC3)nc(-c3ccccc3)n2)CC1
3. CCCCCOC(=O)N1CCN(C(=O)[C@H](CCC(=O)O)NC(=O)c2nc(OCC3CCNCC3)cc(-c3ccccc3)n2)CC1
4. CCCCCOC(=O)N1CCN(C(=O)[C@H](CCC(=O)O)NC(=O)c2cc(OCCCN3CCOCC3)nc(-c3ccccc3)n2)CC1
5. CCCCCOC(=O)N1CCN(C(=O)[C@H](CCC(=O)O)NC(=O)c2cc(N3CCC(C(=O)N4CCC4)CC3)nc(-c3ccccc3)n2)CC1
6. CCCCCOC(=O)N1CCN(C(=O)[C@H](CCC(=O)O)NC(=O)c2nc(-c3ccccc3)cc(N3CCNCC3)n2)CC1

[5.89, 5.70, 5.03, 5.06, 6.64, 5.28]

====

- assayInfo: Antagonist activity at P2Y12 receptor in human platelet rich plasma assessed as inhibition of ADP-induced platelet aggregation by light transmission aggregometry
measuredAttribute: pIC50
One number for each entry, as −log10 of the molar value.

Consider the reported pIC50 for these compounds:
State the recorded pIC50 for this entry: `CCCCCOC(=O)N1CCN(C(=O)[C@H](CCC(=O)O)NC(=O)c2nc(-c3ccccc3)cc(N3CCC(N)CC3)n2)CC1`
5.57

Now consider `CCCCOC(=O)N1CCN(C(=O)[C@H](CCC(=O)O)NC(=O)c2cc(OCCOC)nc(-c3ccccc3)n2)CC1` and answer again.
5.59

Please state pIC50 for every compound in the list that follows.
1. CCCCCOC(=O)N1CCN(C(=O)[C@H](CCC(=O)O)NC(=O)c2cc(N3CCC(CN(CC)CC)CC3)nc(-c3ccccc3)n2)CC1
2. CCCCCOC(=O)N1CCN(C(=O)[C@H](CCC(=O)O)NC(=O)c2cc(N3CCN(C(=O)N(C)C)CC3)nc(-c3ccccc3)n2)CC1
3. CCCCCOC(=O)N1CCN(C(=O)[C@H](CCC(=O)O)NC(=O)c2cc(NC3CCN(C(C)C)CC3)nc(-c3ccccc3)n2)CC1
4. CCCCOC(=O)N1CCN(C(=O)[C@H](CCC(=O)O)NC(=O)c2cc(OCC3CCN(C)CC3)nc(-c3ccccc3)n2)CC1
5. CCCCCOC(=O)N1CCN(C(=O)[C@H](CCC(=O)O)NC(=O)c2cc(N3CCC(COC)CC3)nc(-c3ccccc3)n2)CC1

6.07
5.80
5.43
5.52
5.70

====

- assayInfo: Antagonist activity at P2Y12 receptor in human platelet rich plasma assessed as inhibition of ADP-induced platelet aggregation by light transmission aggregometry
pIC50: −log10 of the molar value.
Assign rule met to entries whose pIC50 meets or exceeds 6; assign rule not met to the rest.

Before answering, review these 6 worked examples.
Quick check: does `CCCCCOC(=O)N1CCN(C(=O)[C@H](CCC(=O)O)NC(=O)c2cc(OCC3CCN(C)CC3)nc(-c3ccccc3)n2)CC1` have pIC50 greater than or equal to 6?
rule not met

Now consider `CCCCCOC(=O)N1CCN(C(=O)[C@H](CCC(=O)O)NC(=O)c2nc(-c3ccccc3)cc(N3CCN(C(N)=O)CC3)n2)CC1` and answer again.
rule not met

Now consider `CCCCCOC(=O)N1CCN(C(=O)[C@H](CCC(=O)O)NC(=O)c2cc(N3CCC(CC(=O)NCC)CC3)nc(-c3ccccc3)n2)CC1` and answer again.
rule not met

Now consider `CCCCCOC(=O)N1CCN(C(=O)[C@H](CCC(=O)O)NC(=O)c2nc(NCCOC)cc(-c3ccccc3)n2)CC1` and answer again.
rule not met

Now consider CCCCOC(=O)N1CCN(C(=O)[C@H](CCC(=O)O)NC(=O)c2cc(OCC3CCCO3)nc(-c3ccccc3)n2)CC1 (stereo not given in full) and answer again.
rule not met

Now consider `CCCCCOC(=O)N1CCN(C(=O)[C@H](CCC(=O)O)NC(=O)c2nc(-c3ccccc3)cc(N3CCC(CCOC)CC3)n2)CC1` and answer again.
rule not met

Next:
Quick check: does `CCCCCOC(=O)N1CCN(C(=O)[C@H](CCC(=O)O)NC(=O)c2cc(N3CC(OCC)C3)nc(-c3ccccc3)n2)CC1` have pIC50 greater than or equal to 6?
rule not met

Now consider `CCCCCOC(=O)N1CCN(C(=O)[C@H](CCC(=O)O)NC(=O)c2cc(OCCOC)nc(-c3ccccc3)n2)CC1` and answer again.
rule not met

Now consider `CCCCOC(=O)N1CCN(C(=O)[C@H](CCC(=O)O)NC(=O)c2cc(N3CCC(C(=O)N(CC)CC)CC3)nc(-c3ccccc3)n2)CC1` and answer again.
rule met

Now consider `CCCCCOC(=O)N1CCN(C(=O)[C@H](CCC(=O)O)NC(=O)c2nc(-c3ccccc3)cc(N3CCN(CC(=O)N(C)C)CC3)n2)CC1` and answer again.
rule not met

Now consider `CCCCCOC(=O)N1CCN(C(=O)[C@H](CCC(=O)O)NC(=O)c2cc(N3CCC(CN4CCCC4)CC3)nc(-c3ccccc3)n2)CC1` and answer again.
rule met
